Assay: self-splicing fitness, log relative to wild type (ln ratio); higher = more splicing; Tetrahymena group I intron in knt gene, E. coli kanamycin selection, DiMSum; sequences stand for … in CUCUCU…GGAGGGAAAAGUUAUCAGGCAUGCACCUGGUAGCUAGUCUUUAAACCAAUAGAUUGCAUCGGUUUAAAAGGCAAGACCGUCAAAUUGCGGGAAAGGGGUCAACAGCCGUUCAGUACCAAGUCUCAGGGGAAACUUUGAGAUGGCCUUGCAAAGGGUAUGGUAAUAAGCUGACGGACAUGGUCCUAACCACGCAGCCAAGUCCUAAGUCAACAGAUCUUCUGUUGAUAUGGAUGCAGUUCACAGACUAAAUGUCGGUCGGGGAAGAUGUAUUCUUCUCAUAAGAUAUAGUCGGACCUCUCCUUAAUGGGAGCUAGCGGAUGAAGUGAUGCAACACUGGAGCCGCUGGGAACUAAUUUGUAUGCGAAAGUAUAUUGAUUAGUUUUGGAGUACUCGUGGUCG;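 further: selection with 25 µg/mL kanamycin versus none on LB agar overnight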
Conditions: 30 °C
Would you kindly list self-splicing fitness (ln) for each of these sequences?
Lab note: record just the number, no unit beside it.

Quick one: self-splicing fitness (ln) of `GCCGAGCAAUAUUACGGUGU` ?
-2.57

Quick one: self-splicing fitness (ln) of `UGAAAGCAAUAUUACGGAUA` ?
-1.56

Quick one: self-splicing fitness (ln) of `AUCUAGCAAUAUUACGACGU` ?
0.175

Quick one: self-splicing fitness (ln) of `GAUCAGCAAUAUUACGGGUA` ?
-0.0547

Quick one: self-splicing fitness (ln) of `CUGAAGCAAUAUUACGUUUG` ?
-1.52

Quick one: self-splicing fitness (ln) of `GUAUAGCAAUAUUACGCAUU` ?
-2

Quick one: self-splicing fitness (ln) of `UACCAGCAAUAUUACGGCUG` ?
-3.63

Quick one: self-splicing fitness (ln) of `AUGUAGCAAUAUUACGCGGC` ?
-4.15

Quick one: self-splicing fitness (ln) of `GGGCAGCAAUAUUACGAUAA` ?
-2.67

Quick one: self-splicing fitness (ln) of `UCCUAGCAAUAUUACGAGUG` ?
-2.1

Quick one: self-splicing fitness (ln) of `UAUAAGCAAUAUUACGUUUU` ?
-3.44

Quick one: self-splicing fitness (ln) of `AUGUAGCAAUAUUACGGUCC` ?
-1.32

Quick one: self-splicing fitness (ln) of `GUCCAGCAAUAUUACGAUUC` ?
-0.315

Quick one: self-splicing fitness (ln) of `CAGCAGCAAUAUUACGGAGA` ?
-3.3

Quick one: self-splicing fitness (ln) of `UCCUAGCAAUAUUACGCCAG` ?
-3.13

Quick one: self-splicing fitness (ln) of `ACGAAGCAAUAUUACGCCAC` ?
-3.08
